Parameter Km: see the listing below.
# Tested on: moLRP (marine origin Lactonase Related Protein), putative AHL lactonase of the PTE-Like-Lactonase (PLL) family from marine metagenomes, recombinant with 6×His …
# ASSAY_DETAILS: AHL lactonase activity of purified moLRP (hydrolysis of N-acyl homoserine lactones, Michaelis-Menten kinetics, pH indicator cresol purple)
# Format: biochemical, marine metagenome (Tara Oceans); MAG of phylum Chloroflexi
# TEST_CONDITIONS: hydrolysis of AHLs by moLRP; Table 1; FIG. 3 (C4-HSL): E0=0.4 μM, 27° C.; error = standard deviation, at least three independent measurements
Include the unit after the number when you answer.

The following compounds have reported results that may help.
>  <COMPOUND>
CCCC(=O)N[C@H]1CCOC1=O

>  <MEASUREMENT>
96.5 µM

$$$$
>  <COMPOUND>
CCCCCCC(=O)N[C@H]1CCOC1=O

>  <MEASUREMENT>
112 µM

$$$$
>  <COMPOUND>
CCCCCC(=O)CC(=O)NC1CCOC1=O (racemic)

>  <MEASUREMENT>
74.8 µM

$$$$

Note: attention shifts to another entry.
Q: Retrieve Km measured for CCCC(=O)CC(=O)N[C@H]1CCOC1=O and print it.
Ans: 150 µM

Origin of values: patent US20240309342A1
